The measurements presented in this section are drawn from patent US12544365B2.

Quick list: Ki per entry.
- TARGET OR TEST SYSTEM: human recombinant EP4 receptor (Homo sapiens, UniProt P35408)
- Sequence (P35408 whole entry): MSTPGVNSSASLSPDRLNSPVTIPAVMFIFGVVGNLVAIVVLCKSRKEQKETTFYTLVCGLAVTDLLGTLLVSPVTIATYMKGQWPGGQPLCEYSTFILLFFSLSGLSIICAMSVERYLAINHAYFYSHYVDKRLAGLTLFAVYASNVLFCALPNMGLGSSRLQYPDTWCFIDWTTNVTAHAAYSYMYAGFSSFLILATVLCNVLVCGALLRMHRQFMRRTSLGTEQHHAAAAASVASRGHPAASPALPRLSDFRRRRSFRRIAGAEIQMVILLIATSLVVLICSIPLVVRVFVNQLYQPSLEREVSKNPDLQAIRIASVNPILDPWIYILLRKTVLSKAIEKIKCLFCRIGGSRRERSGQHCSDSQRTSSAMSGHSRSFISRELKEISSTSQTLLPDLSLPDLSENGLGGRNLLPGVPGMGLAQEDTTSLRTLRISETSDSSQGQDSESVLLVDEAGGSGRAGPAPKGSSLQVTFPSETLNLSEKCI
- METHOD: [3H]-PGE2 specific binding on human recombinant EP4 receptor (HEK293 membranes)
- TEST PARAMETERS: None (absence of BSA)
- Method: Cell membranes were prepared from HEK293 cell line (Human Embryonic Kidney 293) stably overexpressing human recombinant EP4 receptor. Cells grow adherent in DMEM with Glutamax | containing 10% FBS at 37° C. with 5% CO2. […] [3H]-Prostaglandin E2 ([3H]-PGE2) binding assays were performed in 10 mM MES-KOH buffer pH6, containing 10 mM MgCl2 and 1 mM CaCl2. […] The residual [3H]-PGE2 binding was determined by solid scintillation counter (TopCount, PerkinElmer Inc), after at least 1 hour of stabilization. […]

COMPOUND | UNIT SPEC | Ki
O=C([O-])c1ccc(C2(NC(=O)[C@H]3CCCCN3Cc3ccc(C(F)(F)F)cc3)CC2)cc1.[Na+] [Compound 2, Sodium salt] | nM | 31.6
O=C([O-])c1ccc(C2(NC(=O)[C@H]3CC4(CCN3Cc3ccc(C(F)(F)F)cc3)CC4)CC2)cc1.[Na+] | nM | 12.6
